Tested on: Bowes
TEST DETAILS: drug sensitivity score (DSS) (DSS (unitless, 0-50 scale)); higher = more sensitive (stronger viability inhibition); extreme values may be limits of the assay
RUN CONDITIONS: 72 h; culture: 2D
Decision: drug sensitivity score >= 4 yields 1, all other cases yield 0.

O=C(CCCCCCC(=O)Nc1ccccc1)NO	0
C=CCN(/C=C1/C(=O)O[C@H](COC)[C@@]2(C)C1=C(O)C(=O)C1=C2[C@H](OC(C)=O)C[C@]2(C)C(=O)CC[C@@H]12)CC=C	0
COc1ccc2[nH]cc(/C=C3\C(=O)Nc4ccc(NC(=O)CCN5CCCCC5)cc43)c2c1	1
O=C(c1cc(Cc2n[nH]c(=O)c3ccccc23)ccc1F)N1CCN(C(=O)C2CC2)CC1	0
COC(=O)C[C@](O)(CCCC(C)(C)O)C(=O)O[C@@H]1C(OC)=C[C@]23CCCN2CCc2cc4c(cc2[C@H]13)OCO4	1

Test whether the compound "Cc1[nH]nc(C(F)(F)F)c1Cc1sc2c(c1C(=O)N1C[C@](C)(O)CO1)c(=O)n(C)c(=O)n2C(C)C" records drug sensitivity score of 4 or higher.
1

Okay, and "C=C1C[C@@H]2CC[C@@]34C[C@H]5O[C@H]6[C@@H](O3)[C@H]3O[C@H](CC[C@@H]3O[C@H]6[C@H]5O4)CC(=O)C[C@@H]3[C@@H](OC)[C@@H](C[C@H](O)CN)O[C@H]3C[C@H]3O[C@@H](CC[C@@H]1O2)C[C@@H](C)C3=C" ?
1

How about "CN(C(=O)c1ccc(F)cc1C(F)(F)F)C1CCN(c2nnc(-c3ccnn3C)c3ccccc23)CC1" ?
0

Same lookup for "COc1cc(C)c(/C=C/C(C)=C/C=C/C(C)=C/C(=O)O)c(C)c1C" , please.
0

# iterate: "S=c1[nH]cnc2nc[nH]c12"
0

Okay, and "COCCNCc1ccc(-c2cc3nccc(Oc4ccc(NC(=O)C5(C(=O)Nc6ccc(F)cc6)CC5)cc4F)c3s2)nc1" ?
0

Item: NC(=O)NO [Hydroxyurea]
0

Now consider "Oc1ncnc2[nH]ncc12" .
0

How about "CCc1c2c(nc3ccc(O)cc13)-c1cc3c(c(=O)n1C2)COC(=O)[C@]3(O)CC" ?
1

Now this one: "Nc1cc(C(F)(F)F)c(-c2cc(N3CCOCC3)nc(N3CCOCC3)n2)cn1"
1

Now the compound CC(O)(CS(=O)(=O)c1ccc(F)cc1)C(=O)Nc1ccc(C#N)c(C(F)(F)F)c1 (stereo unspecified) [Bicalutamide]
0

Then "COc1cc(Nc2ncc3c(n2)-c2ccc(Cl)cc2C(c2c(F)cccc2OC)=NC3)ccc1C(=O)O" ?
1

Ok, now COCC[n+]1c2c(n(Cc3cnccn3)c1C)C(=O)c1ccccc1C2=O [Sepantronium bromide]
1

Same question for CCC(C)n1ncn(-c2ccc(N3CCN(c4ccc(OCC5COC(Cn6cncn6)(c6ccc(Cl)cc6Cl)O5)cc4)CC3)cc2)c1=O (stereo unspecified) please.
1

Another: "CC1(C)CC[C@]2(NC(=O)C(C)(F)F)CC[C@]3(C)[C@H](C(=O)C=C4[C@@]5(C)C=C(C#N)C(=O)C(C)(C)[C@@H]5CC[C@]43C)[C@@H]2C1"
1

Consider next the compound "Cc1nc(=O)c2cc(CN(C)c3ccc(C(=O)N[C@@H](CCC(=O)O)C(=O)O)s3)ccc2[nH]1" in the same way.
1

Now the compound "Cc1cnc(Nc2ccc(OCCN3CCCC3)cc2)nc1Nc1cccc(S(=O)(=O)NC(C)(C)C)c1"
1

Could you do the same for "Nc1nc2[nH]cnc2c(=S)[nH]1" , please?
1
